tested on: WI-26VA4 human pulmonary fibroblast cells; assay: In vitro cytotoxicity, MTT assay; format: cell-based; details: WI-26VA4 human pulmonary fibroblast cells, MTT, 24 hours, mean and SD of triplicate experiments
The molecules listed here are annotated with their LD50 ± SD (lethal drug concentration that reduced WI-26VA4 cells viability in 50%).
Provide only the numeric value, understood in µM.

Molecule: C[N+]1(C)CCc2c[nH]c3ccc(O)c1c23 [Dehydrobufotenine, Dehydrobufotenin]
Recorded Result: 235.76
--
Molecule: CC12CCC(O)CC1(O)CCC1C2CCC2(C)C(c3ccc(=O)oc3)CC3OC312 (stereo not shown)
Recorded Result: 3.04
--
Molecule: C[C@]12CC[C@H](O)C[C@H]1CC[C@@H]1[C@@H]2CC[C@]2(C)[C@@H](c3ccc(=O)oc3)CC[C@]12O
Recorded Result: 25.9

We now examine a further molecule.
Annotate the molecule CC12CCC(OC(=O)CCCCCCC(=O)NC(CCCNC(=N)N)C(=O)O)CC1(O)CCC1C2CCC2(C)C(c3ccc(=O)oc3)CC3OC312 (stereo not shown) with its measured LD50 ± SD (lethal drug concentration that reduced WI-26VA4 cells viability in 50%). 8.89
